meta.source: patent US5654411A

Below are MIC values measured for Escherichia coli JUHL.

// worked examples, MIC included
MIC of CC[C@H]1OC(=O)[C@H](C)[C@@H](O[C@H]2C[C@@](C)(OC)C[C@H](C)O2)[C@H](C)[C@@H](O[C@@H]2O[C@H](C)C[C@H](N(C)CC)[C@H]2O)[C@@]2(C)C[C@H](C)C(O2)[C@H](C)[C@@H](O)[C@]1(C)O [Example 11] , assay on Escherichia coli JUHL, is > 100 µg/mL

MIC of CC[C@H]1OC(=O)[C@H](C)[C@@H](O[C@H]2C[C@@](C)(OC)C[C@H](C)O2)[C@H](C)[C@@H](O[C@@H]2O[C@H](C)C[C@H](N(C)CC)[C@H]2O)[C@@]2(C)CC(C)=C(O2)[C@H](C)[C@@H](O)[C@H]1C [Example 7] , assay on Escherichia coli JUHL, is > 100 µg/mL

MIC of CC[C@H]1OC(=O)[C@H](C)[C@@H](O[C@H]2C[C@@](C)(OC)[C@@H](O)[C@H](C)O2)[C@H](C)[C@@H](O[C@@H]2O[C@H](C)C[C@H](N(C)C)[C@H]2O)[C@](C)(O)C[C@@H](C)C(=O)[C@H](C)[C@@H](O)[C@]1(C)O [Erythromycin] , assay on Escherichia coli JUHL, is 50 µg/mL

Now consider the entry below.
MIC of CC[C@H]1OC(=O)[C@H](C)[C@@H](O[C@H]2C[C@@](C)(OC)C[C@H](C)O2)[C@H](C)[C@@H](O[C@@H]2O[C@H](C)C[C@H](N(C)CC)[C@H]2O)[C@@]2(C)C[C@@H](C)C(O2)[C@H](C)[C@@H](O)[C@]1(C)O [Example 15] , assay on Escherichia coli JUHL, is > 100 µg/mL
